Biological target: human recombinant COX2 (hCOX2) (UniProt P35354)
Assay: LCMS-based COX2 enzymatic inhibition assay (PGE2 quantification)
Format: biochemical
Parameters: COX2 2 minutes pge2/pge2d4 area ratio Avg; other: 2 minutes; readout pge2/pge2d4 area ratio; average; COX2 2 minutes pge2/pge2d4 area ratio Avg; LLE; average LLE; COX2 2 minutes pge2 area (counts) Avg; readout pge2 area (counts); other: 2 min; "ovine COX2 (oCOX2), human recombinant COX2 (hCOX2)"
Conditions: 2 minutes; readout pge2 area (counts); average; read-out: COX2 2 minutes pge2 area (counts) Avg. IC50
property: IC50 (nM)
Write down the numeric answer in nM and omit the unit.

Problem: Find the recorded IC50 belonging to `CS(=O)(=O)c1ccc(-c2nc(NCc3ccoc3)ccc2F)cc1` and report it.
Result: 20.1

Problem: Return reported IC50; argument: `CS(=O)(=O)c1ccc(-c2cnc3ccn(Cc4ccco4)c3n2)cc1`
Result: 63.3

Problem: Tell me the measured IC50 of `CS(=O)(=O)c1ccc(-c2cncc(OCc3ccsc3)n2)cc1` , please.
Result: 239

Problem: Quick one: IC50 of `CS(=O)(=O)c1ccc(-c2cccc(NCc3cccs3)n2)cn1` ?
Result: 42.6

Problem: Looking for the measured IC50 of `CS(=O)(=O)c1ccc(-c2cncc(SCc3cocn3)n2)cc1` , can you help?
Result: 3900

Problem: Can you look up the measured IC50 of `C[C@H](Nc1cncc(-c2ccc(S(C)(=O)=O)cc2)n1)c1cccs1` for me?
Result: 79.3

Problem: Find the recorded IC50 belonging to `COc1ncc(NCc2cccs2)nc1-c1ccc(S(C)(=O)=O)cn1` and report it.
Result: 139

Problem: Data request, read-out IC50, for `CS(=O)(=O)c1ccc(-c2cccc(NCc3ccsc3)n2)cc1`
Result: 8.13

Problem: Request the reported IC50 associated with `CS(=O)(=O)c1ccc(-c2cncc(SCc3ccco3)n2)cc1`
Result: 43.6

Problem: Entry `Cc1coc(CNc2cccc(-c3ccc(S(C)(=O)=O)cc3)n2)c1` has what IC50?
Result: 115

Problem: GET /values?readout=IC50&item= C[C@H](Nc1cccc(-c2ccc(S(C)(=O)=O)cc2)n1)c1ccco1 (single isomer, unassigned)
Result: 60

Problem: # query: IC50 of entry `CS(=O)(=O)c1ccc(-c2nc(OCc3cccs3)cc3ccoc23)cc1`
Result: 7.14

Problem: # input compound: CS(=O)(=O)c1ccc(-c2cncc(NC[C@@H]3CCCS3)n2)cc1 (single isomer, unassigned) ; wanted: its IC50
Result: 433

Problem: IC50 lookup needed for `CS(=O)(=O)c1ccc(-c2cccc(OCc3cccs3)n2)nc1` , thanks.
Result: 14.3

Problem: Given `CS(=O)(=O)c1ccc(-c2ccc3c(n2)N(Cc2cccs2)C(=O)C3)cc1` , state its recorded IC50.
Result: 2050

Problem: Name the recorded IC50 for `CS(=O)(=O)c1ccc(-c2cnc(C(F)(F)F)c(NCc3cccs3)n2)cc1` .
Result: 229

Problem: Please give the measured IC50 for this compound: `CS(=O)(=O)c1ccc(-c2cncc(OCc3ccccc3)n2)cc1`
Result: 520

Problem: If you can, please state the reported IC50 value of `COc1cc(S(C)(=O)=O)ccc1-c1cccc(NCc2cccs2)n1` .
Result: 3250

Problem: Report IC50 for `CS(=O)(=O)c1ccc(-c2cncc(NCc3ccc(F)cc3)n2)cc1` please.
Result: 85

Problem: What value of measured IC50 is listed for `CS(=O)(=O)c1ccc(-c2nc(NCc3cccs3)cnc2C(F)(F)F)cc1` ?
Result: 48.5

----------
Target: human recombinant COX2 (hCOX2) (UniProt P35354)
Experiment: LCMS-based COX2 enzymatic inhibition assay (PGE2 quantification)
Type: biochemical
Parameters: COX2 2 minutes pge2/pge2d4 area ratio Avg; other: 2 minutes; readout pge2/pge2d4 area ratio; average; COX2 2 minutes pge2/pge2d4 area ratio Avg; LLE; average LLE; COX2 2 minutes pge2 area (counts) Avg; readout pge2 area (counts); other: 2 min; "ovine COX2 (oCOX2), human recombinant COX2 (hCOX2)"
Details: 2 minutes; readout pge2/pge2d4 area ratio; average LLE
Decide using COX2 2 minutes pge2/pge2d4 area ratio Avg. LLE: a value greater than or equal to 4 is met, a smaller one is not met.

Problem: Confirm if COX2 2 minutes pge2/pge2d4 area ratio Avg. LLE reported for the molecule `CS(=O)(=O)c1ccc(-c2cncc(NCc3cccs3)n2)c(O)c1` is 4 or above.
Result: met

Problem: Tell me whether COX2 2 minutes pge2/pge2d4 area ratio Avg. LLE is at least 4 here: `CS(=O)(=O)c1ccc(-c2cccc(NCc3cccs3)n2)cn1`
Result: met

Problem: Determine whether measured COX2 2 minutes pge2/pge2d4 area ratio Avg. LLE meets or exceeds 4 for `COc1ncc(NCc2cccnc2)nc1-c1ccc(S(C)(=O)=O)cc1`
Result: met

Problem: Given the entry `Cc1cc(CNc2cccc(-c3ccc(S(C)(=O)=O)cc3)n2)co1` , answer whether its COX2 2 minutes pge2/pge2d4 area ratio Avg. LLE meets or surpasses 4.
Result: met

Problem: Does COX2 2 minutes pge2/pge2d4 area ratio Avg. LLE meet or surpass 4 for `CS(=O)(=O)c1ccc(-n2ccc3ncc(NCc4cccs4)nc32)cc1` ?
Result: not met

Problem: Threshold query (COX2 2 minutes pge2/pge2d4 area ratio Avg. LLE >= 4) on `COc1ccc(NCc2cccs2)nc1-c1ccc(S(C)(=O)=O)nc1`
Result: met

Others:
Problem: hey, is COX2 2 minutes pge2/pge2d4 area ratio Avg. LLE for this one >= 4? `CS(=O)(=O)c1ccc(-c2nc(NCc3cccs3)ccc2S(C)(=O)=O)cc1`
Result: not met

Problem: API: above_or_equal(metric=COX2 2 minutes pge2/pge2d4 area ratio Avg. LLE, cutoff=4) for item `CS(=O)(=O)c1ccc(-c2nncc(NCc3cccs3)n2)cc1`
Result: met

Problem: Does the reported COX2 2 minutes pge2/pge2d4 area ratio Avg. LLE for CS(=O)(=O)c1ccc(-c2cccc(C3CC3c3ccoc3)n2)cc1 (single isomer, unassigned) [Compound 115] fall at or above the 4 mark?
Result: not met

----------
Biological target: ovine COX-1 (oCOX-1) (Ovis aries)
Construct: purchased Cayman Chemicals (Ann Arbor, Mich.)
Sequence (P05979 25-600): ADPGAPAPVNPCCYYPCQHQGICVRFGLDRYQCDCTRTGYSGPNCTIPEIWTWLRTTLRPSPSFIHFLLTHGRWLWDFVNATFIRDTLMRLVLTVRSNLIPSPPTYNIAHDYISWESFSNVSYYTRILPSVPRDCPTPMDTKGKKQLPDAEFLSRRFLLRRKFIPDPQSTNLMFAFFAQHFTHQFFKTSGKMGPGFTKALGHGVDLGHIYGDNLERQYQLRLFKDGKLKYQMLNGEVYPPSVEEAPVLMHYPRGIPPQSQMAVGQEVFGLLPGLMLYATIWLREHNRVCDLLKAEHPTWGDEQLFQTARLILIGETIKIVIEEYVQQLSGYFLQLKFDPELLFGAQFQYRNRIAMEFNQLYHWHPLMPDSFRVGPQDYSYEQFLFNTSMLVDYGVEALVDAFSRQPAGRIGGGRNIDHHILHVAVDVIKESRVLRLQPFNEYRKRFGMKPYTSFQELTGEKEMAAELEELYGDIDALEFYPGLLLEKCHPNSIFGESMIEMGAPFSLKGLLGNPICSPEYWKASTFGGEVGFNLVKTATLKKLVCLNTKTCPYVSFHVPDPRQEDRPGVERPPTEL
Assay: LCMS-based COX-1 enzymatic inhibition assay (PGE2 quantification)
Format: biochemical
Details: 10 minutes; readout pge2 area (counts); average; read-out: COX1 10 minutes pge2 area (counts) Avg. IC50
Reported pIC50 by item:
Please keep in mind that pIC50 is minus log10 of the molar concentration; only the number is needed.

Problem: Which value of pIC50 has been reported for `CS(=O)(=O)c1ccc(-c2cc(F)cc(NCc3ccco3)n2)cc1` in the records?
Result: 4.49

Others:
Problem: Which pIC50 is listed for `COc1cc(NCc2cccs2)nc(-c2ccc(S(C)(=O)=O)cc2)c1` ?
Result: 4.38

Problem: // returns reported pIC50 for input `CS(=O)(=O)c1ccc(-c2cccc(/C=C\c3cccs3)n2)cc1`
Result: 4.30

Problem: State the recorded pIC50 for this entry: `CS(=O)(=O)c1ccc(-c2cncc(OCc3cccs3)n2)cc1`
Result: 4.96

Problem: Which measured pIC50 value corresponds to `CS(=O)(=O)c1ccc(-c2cccc(NCc3ccsc3)n2)cc1` ?
Result: 4.37

Problem: Need pIC50, item `CS(=O)(=O)c1ccc(-c2ccc(F)c(NCc3ccoc3)n2)cc1`
Result: 4.42

Problem: Given the compound `NS(=O)(=O)c1ccc(-c2cncc(OCc3cccs3)n2)cc1` , what is its reported pIC50?
Result: 6.04

Problem: Field request: pIC50 | item: `CS(=O)(=O)c1ccc(-c2ccc(F)c(OCc3cccs3)n2)cc1`
Result: 5.15

Problem: Would you kindly share the measured pIC50 for `CS(=O)(=O)c1ccc(-c2cccc(NCc3ccc(F)o3)n2)cc1` ?
Result: 6.38

Problem: // query pIC50 value for entry `CS(=O)(=O)c1ccc(-c2ccc3ccn(Cc4ccoc4)c3n2)cc1`
Result: 4.78

Problem: If you can, please state the reported pIC50 value of `CS(=O)(=O)c1ccc(-c2ccc3ccn(Cc4cccs4)c3n2)cc1` .
Result: 5.57

Problem: Which pIC50 is reported for this compound? `COc1ncc(NCc2ccco2)nc1-c1ccc(S(C)(=O)=O)cc1`
Result: 4.37

Problem: Given the compound `COc1ncc(NCc2cccs2)nc1-c1ccc(S(C)(=O)=O)cc1` , what is its reported pIC50?
Result: 7.32

Problem: May I ask what pIC50 has been recorded for `CS(=O)(=O)c1ccc(-c2cccc(NCc3cccs3)c2)cc1` ?
Result: 4.41

Problem: I would be grateful if you could share the reported pIC50 for `COc1cc(-c2ccc(S(C)(=O)=O)cc2)cc(NCc2cccs2)n1` .
Result: 4.28

Problem: Name the recorded pIC50 for `CS(=O)(=O)c1ccc(-c2cncc(SCc3ccoc3)n2)cc1` .
Result: 4.42

Provenance of the data: patent US20220348590A1
